Assay: chemical genetic growth profiling, strain panel (AID 1159580);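 note: tested at 20 µM; growth read once vehicle control cultures reached saturation at 30 °C; 1 = growth at the plate median or of vehicle wells; lower values mean less growth of the strain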
Settings: S. cerevisiae deletion strains, growth OD, locus YPL241C, strain CIN2, stronger effect = lower value
The campaign covered roughly 5,500 compounds. About 2,000 (36%) were called active. Roughly 18% stayed inconclusive and do not appear here. The list shows a part of the results.
# normalized growth per record follows

Compound: CC1=C(/C=C/C(C)=C/C=C/C(C)=C\C(=O)O)C(C)(C)CCC1
normalized growth: 1.01 (inactive)
//
Compound: COc1ccc(/C=C/c2cc(O)cc(O)c2)cc1
normalized growth: 0.973 (inactive)
//
Compound: CCOP(=S)(OCC)Oc1ccc2c(C)c(Cl)c(=O)oc2c1
normalized growth: 0.982 (inactive)
//
Compound: NCCCC(N)(C(=O)O)C(F)F (centres undefined)
normalized growth: 1 (inactive)
//
Compound: O=C(OCCN1CCOCC1)C1(c2ccccc2)CCCCC1
normalized growth: 0.999 (inactive)
//
Compound: NC1CCN(c2cccc(Cl)n2)CC1
normalized growth: 1 (inactive)
//
Compound: CC1Cc2cc3c(cc2C(c2ccc(N)cc2)=NN1)OCO3 (centres undefined)
normalized growth: 0.986 (inactive)
//
Compound: O=C1c2cccc3c(SCCO)ccc(c23)C(=O)N1CCc1ccccn1
normalized growth: 0.989 (inactive)

Any idea what normalized growth was measured for Cc1onc(-c2ccccc2Cl)c1C(=O)Nc1ccc(S(=O)(=O)Nc2nccs2)cc1 ?
1.01 (inactive)

Any idea what normalized growth was measured for O=c1[nH]c(-c2cc(Br)cs2)nc2ccc(Cl)cc12 ?
0.999 (inactive)

Any idea what normalized growth was measured for CCCNC(C)C(=O)Nc1ccccc1C (centres undefined) ?
1.01 (inactive)

Any idea what normalized growth was measured for CCOc1ccc2c(c1)C(C)=CC(C)(C)N2 ?
0.997 (inactive)

Any idea what normalized growth was measured for O=c1[nH]cnc2ccc(Br)cc12 ?
1.01 (inactive)

Any idea what normalized growth was measured for O=C(O)P(=O)(O)O ?
0.986 (inactive)

* * *

# normalized growth per record follows
Experiment: chemical genetic growth profiling, strain panel (AID 1159580)
Conditions: S. cerevisiae deletion strains, growth OD, locus YHR200W, strain rpn10, stronger effect = lower value
About 2,000 (36%) of roughly 5,500 compounds were called active. Roughly 18% stayed inconclusive and do not appear here. This is one part of the list.

Compound: COc1cc(C)c2c(c1C=O)Oc1c(c(C)c(O)c3c1C(O)OC3=O)OC2=O (configuration not stated)
Endpoint Result: 0.999 (inactive)
//
Compound: CCC(CCC(C)C1CCC2C3CC=C4C[C@@H](OC(C)=O)CC[C@]4(C)C3CC[C@]12C)C(C)C (some centres not stated)
Endpoint Result: 0.975 (inactive)
//
Compound: C=CC1=C(C)/C(=C/c2[nH]c(Cc3[nH]c(/C=C4\NC(=O)C(C)=C4C=C)c(C)c3CCC(=O)O)c(CCC(=O)O)c2C)NC1=O
Endpoint Result: 1.02 (inactive)

Any idea what normalized growth was measured for CC(Cc1ccc(O)c(O)c1)(NN)C(=O)O (configuration not stated) ?
1.01 (inactive)

* * *

Assay: chemical genetic growth profiling, strain panel (AID 1159580)
Conditions: S. cerevisiae deletion strains, growth OD, locus YPL106C, strain sse1, stronger effect = lower value
In all, about 5,500 compounds went through this assay and about 2,000 (36%) were called active. Inconclusive results (about 18%) are left out. This is one part of the list.
# normalized growth per record follows
A bare number is all that is needed in reply.

Any idea what normalized growth was measured for OC/C=C/c1ccc(O)c(O)c1 ?
0.988

Any idea what normalized growth was measured for CC[C@]12CCCN3CCc4c(n(c5ccccc45)C(=O)C1)[C@@H]32 ?
0.973

Any idea what normalized growth was measured for CC12CCC(CC1)C(C)(C)O2 ?
0.978

Any idea what normalized growth was measured for O=C(/C=C/c1ccc(O)c(O)c1)O[C@@H]1C[C@](O)(C(=O)O)C[C@@H](O)[C@H]1O ?
0.995

Any idea what normalized growth was measured for COc1cc(/C=C/C(=O)O)ccc1O ?
1.01

Any idea what normalized growth was measured for Oc1ccc(/C=C/c2cc(O)cc(O)c2)cc1 ?
1.02

Any idea what normalized growth was measured for COc1ccc2c(c1O)-c1c(OC)c(OC)cc3c1[C@H](C2)N(C)CC3 ?
0.972

Any idea what normalized growth was measured for CC1=CC(=O)CC(C)(C)C1(O)/C=C/C(C)=C\C(=O)O (stereo not drawn) ?
1.02

* * *

Test: chemical genetic growth profiling, strain panel (AID 1159580)
Conditions: S. cerevisiae deletion strains, growth OD, locus YDR137W, strain rgp1, stronger effect = lower value
In all, about 5,500 compounds went through this assay and about 2,000 (36%) were called active. About 18% were inconclusive and are not listed. Some of the results follow.
# normalized growth per record follows

These solved cases illustrate the format of a correct answer.
Compound: COc1ccc(/C=C/C(=O)O)cc1OC
Readout Type: normalized growth
Endpoint Result: 1.02 (inactive)

Compound: COc1ccc(/C=C/C(=O)c2ccc(O)cc2O)cc1
Readout Type: normalized growth
Endpoint Result: 0.218 (active)

Compound: C[C@](N)(Cc1ccc(O)c(O)c1)C(=O)O
Readout Type: normalized growth
Endpoint Result: 0.945 (inactive)

Any idea what normalized growth was measured for CCOC(=O)C1=C[C@]2(CC)CCCN3CCc4c(n1c1ccccc41)[C@@H]32 ?
0.967 (inactive)

Any idea what normalized growth was measured for CCOC(=O)CCCCCCCCCCCCC1C=CCC1 (stereo not drawn) ?
0.979 (inactive)

Any idea what normalized growth was measured for OC1CCCCC1N1CCC(c2ccccc2)CC1 (stereo not drawn) ?
0.945 (inactive)

Any idea what normalized growth was measured for CN(C)CCCO[C@H]1[C@@H](C(O)CO)OC2OC(C)(C)O[C@@H]21 (stereo partly drawn) ?
0.963 (inactive)

* * *

Assay: chemical genetic growth profiling, strain panel (AID 1159580);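 note: tested at 20 µM; growth read once vehicle control cultures reached saturation at 30 °C; 1 = growth at the plate median or of vehicle wells; lower values mean less growth of the strain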
Conditions: S. cerevisiae deletion strains, growth OD, locus YDL192W, strain arf1
Screen size: about 5,500 compounds; about 2,000 (36%) were called active. Not shown: some 18% with an inconclusive outcome. Cut-off read from the data, not from the text of the source: active = normalized growth mostly below about 0.91 (no sharp cut-off); inconclusive = no clear call, values can overlap the other calls; inactive = mostly above about 0.92. The list shows a part of the results.
Could you please pick one outcome from this set? true (active), false (inactive)

Compound: CC1=C(/C=C/C(C)=C/C=C/C(C)=C/CO)C(C)(C)CCC1
Class Assignment: false

Compound: CC[C@@H](C(=O)[C@@H](C)[C@@H](O)[C@H](C)[C@@H]1O[C@@H]([C@@H](CC)C(=O)O)CC[C@@H]1C)[C@H]1OC2(C=C[C@@H](O)[C@]3(CC[C@@](C)([C@H]4CC[C@](O)(CC)[C@H](C)O4)O3)O2)[C@H](C)C[C@@H]1C (stereo partly drawn)
Class Assignment: true

Tell me the assay call for CC1=CC(=O)CC(C)(C)C1(O)/C=C/C(C)=C\C(=O)O (stereo not drawn) please.
false

* * *

# normalized growth per record follows
Assay: chemical genetic growth profiling, strain panel (AID 1159580);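 note: tested at 20 µM; growth read once vehicle control cultures reached saturation at 30 °C; 1 = growth at the plate median or of vehicle wells; lower values mean less growth of the strain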
Conditions: S. cerevisiae deletion strains, growth OD, locus YER110C, stronger effect = lower value
About 2,000 (36%) of roughly 5,500 compounds were called active. Roughly 18% stayed inconclusive and do not appear here. The list shows a part of the results.
A bare number is all that is needed in reply.

Compound: C[C@](N)(Cc1ccc(O)c(O)c1)C(=O)O
normalized growth: 0.971
--
Compound: Nc1nc(N)c2nc(CNc3ccc(C(=O)NC(CCC(=O)O)C(=O)O)cc3)cnc2n1 (stereo unspecified)
normalized growth: 0.981
--
Compound: CCOC(=O)c1ccc(N)cc1
normalized growth: 0.995
--
Compound: Nc1nc2c(c(=O)[nH]1)N(C=O)C(CNc1ccc(C(=O)N[C@@H](CCC(=O)O)C(=O)O)cc1)CN2 (stereo partly specified)
normalized growth: 0.978
--
Compound: COc1c(C(=O)O)ccc2c1CCC(C)(C)O2
normalized growth: 0.997

Any idea what normalized growth was measured for CC[C@@H](C(=O)[C@@H](C)[C@@H](O)[C@H](C)[C@@H]1O[C@@H]([C@@H](CC)C(=O)O)CC[C@@H]1C)[C@H]1OC2(C=C[C@@H](O)[C@]3(CC[C@@](C)([C@H]4CC[C@](O)(CC)[C@H](C)O4)O3)O2)[C@H](C)C[C@@H]1C (stereo partly specified) ?
1.01

* * *

Assay: chemical genetic growth profiling, strain panel (AID 1159580);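 note: tested at 20 µM; growth read once vehicle control cultures reached saturation at 30 °C; 1 = growth at the plate median or of vehicle wells; lower values mean less growth of the strain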
Conditions: S. cerevisiae deletion strains, growth OD, locus YFR003C, strain YPI1, stronger effect = lower value
The whole screen tested about 5,500 compounds, of which about 2,000 (36%) were called active. Inconclusive results (about 18%) are left out. The list shows a part of the results.
Readout Type: normalized growth

Compound: COc1cc(C(=O)Oc2c(Cl)cc(Cl)cc2C=Nc2cccc([N+](=O)[O-])c2)cc(OC)c1OC
normalized growth: 0.976 (inactive)
--
Compound: O=C(NCc1ccco1)c1csc(C2COc3ccccc3O2)n1 (centres undefined)
normalized growth: 0.931 (inactive)
--
Compound: NC(=NC(=O)c1ccc(Cl)cc1)c1cccs1
normalized growth: 0.959 (inactive)
--
Compound: CC1(C)C/C(=N/Nc2ccc(C(F)(F)F)cc2)c2cc(C(C)(C)C)c(O)c(O)c2O1
normalized growth: 0.981 (inactive)
--
Compound: N/C(=N/OC(=O)c1ccc(Cl)cc1)c1ccc(F)cc1F
normalized growth: 0.919 (inactive)
--
Compound: CC12CC[C@@H](O)CC1=CC[C@@H]1C2CCC2(C)C(=O)CC[C@@H]12 (some centres undefined)
normalized growth: 1.01 (inactive)
--
Compound: COCCOc1ccccc1NC(=S)SCCSC(=S)Nc1ccccc1OCCOC
normalized growth: 0.977 (inactive)
--
Compound: COc1cc(N=Cc2cc(Cl)cc(Cl)c2OC(=O)c2cc(OC)c(OC)c(OC)c2)c(OC)cc1Cl
normalized growth: 0.975 (inactive)

Any idea what normalized growth was measured for O=S(=O)(Nc1cc(C(F)(F)F)ccc1F)c1cc(C(F)(F)F)ccc1Cl ?
0.946 (inactive)

Every entry's value here was drawn from PubChem BioAssay AID1159580.
